- ASSAY_TARGET: DLG1_1, Q12959
- ASSAY_INFO: holdup assay
- Design: key: below the threshold = too weak to quantify, mostly under pKd 3.1 to 4
- EXPERIMENTAL_SETUP: plain residues with an end cap or a label only (N-terminal biotin on a linker: ttds)
ENDPOINT_NAME: pKd
Simply state the number, no unit and no words.

input: Could you share which pKd value was measured for SVWLRKETRV [CYSLTR2, Q9NS75] ?
output: 5.14

input: Another: SSRTRRETQL [HPV16-E6, P03126]
output: 4.67

input: Another: QSARYRDTEL [TJP2, Q9UDY2]
output: 3.68

input: Another: ERKLSSESQV [LRP4, O75096]
output: 3.82

input: Another: STLTIFETAL [ABCC4, O15439]
output: 4.46

input: Another: VLRLQSETSV [VANGL1, Q8TAA9]
output: 4.45

input: Another: SRPQRTQTQV [HPV67-E6, A4U7F2]
output: 4.52

input: Another: PKTPPTDTSV [KIR3DL3, Q8N743]
output: 4.02

Where do these numbers come from? They come from paper PMC9482650.
